Test system: SW-620 colon
Method summary: NCI-60 one-dose screen, 48 h
Protocol conditions: 10 µM unless noted
Protocol: Growth inhibition of the SW-620 human tumor cell line is measured as a screen for anti-cancer activity. Cells are grown in 96 well plates and exposed to the test compound for 48 hours. Compounds are tested at a single concentration, which is 10^-5 M for most compounds. The reported endpoint is percent growth (GI% or GIPRCNT), where numbers from 0 - 100% represent growth inhibition, and numbers from -100% - 0 represent cell death. For example, a value of 40 represents 60% growth inhibition. […]
The panel holds about 83,000 compounds, 20% with a hit somewhere; the sample as a whole holds those more often. The source made the active and inactive calls. The calls were made as follows: active = growth percent below 10; inactive = the rest.
Possible outcomes: active, inactive

INSERT INTO assay_data (molecule, assayed_target, class_assignment) VALUES
  ('CCC#CC[C@H](O)C/C=C1/C(=O)C=C[C@@H]1C/C=C\CCCC(=O)OC', 'SW-620 colon', 'active'),
  ('CN(C)c1ccc(N=Nc2ccccn2)c(O)c1', 'SW-620 colon', 'inactive'),
  ('COc1cc2nc(N3CCCC3)nc(NCC3CCCCC3)c2cc1OC', 'SW-620 colon', 'active'),
  ('N#Cc1c(-c2ccc(Cl)cc2)nc(N=Nc2c(O)[nH]c3ccc(Cl)cc23)nc1N1CCOCC1', 'SW-620 colon', 'inactive'),
  ('COc1ccc(CN2c3ccccc3Oc3ccccc32)cc1F', 'SW-620 colon', 'inactive'),
  ('CC1SC(c2ccc(N(C)C)cc2)N(NC(=O)C(O)(c2ccccc2)c2ccccc2)C1=O (centres undefined)', 'SW-620 colon', 'inactive'),
  ('CC(C)n1c(/C=C/[C@@H](O)C[C@@H](O)CC(=O)O)c(-c2ccc(F)cc2)c2ccccc21', 'SW-620 colon', 'inactive'),
  ('CCNC(=O)Oc1ccc(/C(=C(\C)c2ccc(Cl)cc2)c2ccc(OCCN(CC)CC)cc2)cc1', 'SW-620 colon', 'active'),
  ('COc1cc(C(=O)/C=C/c2cccnc2Nc2ccc(Cl)cc2)cc(OC)c1OC', 'SW-620 colon', 'active'),
  ('CCCOc1cc2ccccc2cc1C(=O)Nc1nc(NC)c2c(ccc3nccc32)[nH]1', 'SW-620 colon', 'active'),
  ('COc1ccc(CCNc2nc3c(c(=O)n(Cc4ccc(Br)cc4)c(=O)n3C)n2C)cc1OC', 'SW-620 colon', 'inactive'),
  ('CCOC(=O)c1c(CN2CCN(C)CC2)nc2ccc(Cl)cc2c1-c1ccccc1', 'SW-620 colon', 'inactive'),
  ('COc1ccc2cc(-c3nn(-c4ccc(C(=O)O)cc4)cc3CO)ccc2c1', 'SW-620 colon', 'inactive'),
  ('COc1ccc(-n2nc(C)c3c(Nc4ccc(NC(=O)Nc5cc(C(F)(F)F)ccc5F)cc4)ncnc32)cc1', 'SW-620 colon', 'inactive'),
  ('COc1cc(CNc2oc(-c3ccccc3)c(-c3ccccc3)c2C#N)cc(CN2CCN(C)CC2)c1O', 'SW-620 colon', 'inactive'),
  ('Cc1cc(N2CCSCC2)nc(NC2CCCC(Nc3ccnc4cc(Cl)ccc34)C2)n1 (centres undefined)', 'SW-620 colon', 'active'),
  ('COc1ccc(CN2c3ccccc3Oc3ccccc32)cc1O', 'SW-620 colon', 'inactive'),
  ('O=S(=O)(Nc1ccc(Cl)c(F)c1)c1ccc(-c2cnc(C3CC3)o2)cc1', 'SW-620 colon', 'inactive'),
  ('O=C(COc1ccc(/C=C2\COc3ccccc3C2=O)cc1)Nc1nccs1', 'SW-620 colon', 'inactive'),
  ('Cn1c(=O)c2c(nc3n(-c4ccc(Cl)cc4Cl)c(Sc4nc(-c5ccccc5)c(C#N)c(=O)[nH]4)cn23)n(C)c1=O', 'SW-620 colon', 'inactive'),
  ('CCOc1ccc(-n2nc(C(=O)Nc3cc(OC)c(OC)c(OC)c3)nc2-c2cc(OC)c(OC)c(OC)c2)cc1', 'SW-620 colon', 'inactive'),
  ('CC/C=C\C/C=C\C[C@H]1C/C=C2/C(=O)C=C[C@@H]2C/C=C\CCC(=O)O1', 'SW-620 colon', 'active'),
  ('C=CC(=O)Nc1cccc(-c2nc(SC)nc(Nc3cccc(OC)c3)c2C#N)c1', 'SW-620 colon', 'inactive'),
  ('CSc1nc(NCCN2CCOCC2)c(C#N)c(-c2cccc([N+](=O)[O-])c2)n1', 'SW-620 colon', 'inactive'),
  ('COc1ccc(-c2cc(Nc3ccnc(N4CCOCC4)n3)on2)cc1', 'SW-620 colon', 'inactive'),
  ('C#CCOc1ccc2ncnc(Nc3cccc(CNC(=O)C=C)c3)c2c1', 'SW-620 colon', 'inactive'),
  ('N#Cc1c(-c2ccc(Cl)cc2)nc(N/N=C/c2cccc(Br)c2)nc1N1CCOCC1', 'SW-620 colon', 'inactive'),
  ('O=C1/C(=C/c2cn(-c3ccccc3)nc2-c2ccccc2)SC(=S)N1CCc1ccccc1', 'SW-620 colon', 'inactive'),
  ('CCOC(=O)c1sc2nc(-c3cccc(OC)c3)nc(N3CCOCC3)c2c1C', 'SW-620 colon', 'inactive'),
  ('CC1=C(O)C(=O)C(C(C#N)(C#N)C(C#N)C#N)C1 (centres undefined)', 'SW-620 colon', 'inactive'),
  ('O=C1/C(=C/c2ccc(Cl)cc2)SC(=S)N1CCc1ccc(O)cc1', 'SW-620 colon', 'inactive'),
  ('COc1cc2nc(N3CCCC3)nc(Nc3ccccc3)c2cc1OC', 'SW-620 colon', 'active'),
  ('COc1cc(-c2nc3ccccc3[nH]2)ccc1OCC(=O)N=Nc1c(O)[nH]c2ccc(Cl)cc12', 'SW-620 colon', 'active'),
  ('COc1cc(Nc2cc(C)nc(N3CCN(c4ccnc5cc(Cl)ccc45)CC3)n2)cc(OC)c1', 'SW-620 colon', 'inactive'),
  ('COc1ccc(Nc2nc(SC)nc(-c3cccc([N+](=O)[O-])c3)c2C#N)cc1', 'SW-620 colon', 'inactive'),
  ('Cc1ncc(C(=O)Nc2ccc(CN3CCN(C)CC3)c(C(F)(F)F)c2)cc1C#Cc1cnc2cccnn12', 'SW-620 colon', 'active'),
  ('COc1cccc(-c2nc3sccn3c2-c2ccnc(NCCCNS(=O)(=O)c3cccc(Cl)c3)c2)c1', 'SW-620 colon', 'inactive'),
  ('Cc1nc2ccccc2n1C(=O)C[C@@H]1NC(=S)NC1=O', 'SW-620 colon', 'inactive'),
  ('COc1ccc2[nH]cc(-c3noc(C(=O)c4cn(C)c5ccc(F)cc45)n3)c2c1', 'SW-620 colon', 'inactive');

These entries and their values trace back to PubChem BioAssay (NCI).
